Assay: self-splicing fitness, log relative to wild type (ln ratio); higher = more splicing; Tetrahymena group I intron in knt gene, E. coli kanamycin selection, DiMSum; sequences stand for … in CUCUCU…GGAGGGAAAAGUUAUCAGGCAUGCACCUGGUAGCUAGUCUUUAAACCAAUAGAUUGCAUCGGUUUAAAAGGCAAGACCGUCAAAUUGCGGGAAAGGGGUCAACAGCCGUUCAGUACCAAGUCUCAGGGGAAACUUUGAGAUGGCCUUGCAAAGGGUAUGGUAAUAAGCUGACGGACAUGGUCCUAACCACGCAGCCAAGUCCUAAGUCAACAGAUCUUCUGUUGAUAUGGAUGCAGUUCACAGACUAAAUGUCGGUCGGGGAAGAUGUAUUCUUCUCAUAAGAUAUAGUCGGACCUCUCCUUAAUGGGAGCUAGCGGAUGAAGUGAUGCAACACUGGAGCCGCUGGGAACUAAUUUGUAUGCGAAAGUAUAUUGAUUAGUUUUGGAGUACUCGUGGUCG;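 note: selection with 25 µg/mL kanamycin versus none on LB agar overnight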
Settings: 30 °C
Rule: self-splicing fitness (ln) under -3 gives 0 (no), otherwise 1 (yes).

- chain: "ACCAAGCAAUAUUACGCUAG"
  assigned.label: "1 (yes)"
- chain: "GCAGAGCAAUAUUACGCAAA"
  assigned.label: "0 (no)"
- chain: "GAACAGCAAUAUUACGCGAU"
  assigned.label: "1 (yes)"
- chain: "CAGUAGCAAUAUUACGGAGU"
  assigned.label: "0 (no)"
- chain: "GUCCAGCAAUAUUACGAACC"
  assigned.label: "1 (yes)"
- chain: "GAUAAGCAAUAUUACGUCUC"
  assigned.label: "1 (yes)"
- chain: "UGAUAGCAAUAUUACGUCAC"
  assigned.label: "0 (no)"
- chain: "ACCCAGCAAUAUUACGUCGU"
  assigned.label: "1 (yes)"
- chain: "UUUAAGCAAUAUUACGGGUU"
  assigned.label: "1 (yes)"
- chain: "UGCUAGCAAUAUUACGAUGC"
  assigned.label: "0 (no)"
- chain: "AAGUAGCAAUAUUACGAGGA"
  assigned.label: "1 (yes)"
- chain: "ACCUAGCAAUAUUACGAUGC"
  assigned.label: "1 (yes)"
- chain: "AAGAAGCAAUAUUACGCAGU"
  assigned.label: "1 (yes)"
- chain: "UACGAGCAAUAUUACGACAG"
  assigned.label: "1 (yes)"
- chain: "AGGCAGCAAUAUUACGGGGG"
  assigned.label: "0 (no)"
- chain: "ACUGAGCAAUAUUACGGCGC"
  assigned.label: "1 (yes)"
- chain: "CCCGAGCAAUAUUACGGAAC"
  assigned.label: "1 (yes)"
- chain: "CUGUAGCAAUAUUACGGCAA"
  assigned.label: "0 (no)"
- chain: "GACAAGCAAUAUUACGCAUA"
  assigned.label: "1 (yes)"
- chain: "GUUCAGCAAUAUUACGUUAU"
  assigned.label: "1 (yes)"
- chain: "AUACAGCAAUAUUACGGGGC"
  assigned.label: "1 (yes)"
- chain: "GCAGAGCAAUAUUACGUUCU"
  assigned.label: "1 (yes)"
- chain: "GUCAAGCAAUAUUACGUGUC"
  assigned.label: "1 (yes)"
- chain: "CCUAAGCAAUAUUACGUGAC"
  assigned.label: "0 (no)"
- chain: "AUCCAGCAAUAUUACGAAGA"
  assigned.label: "1 (yes)"
- chain: "AGCAAGCAAUAUUACGGGUU"
  assigned.label: "1 (yes)"
- chain: "UCAUAGCAAUAUUACGUGGA"
  assigned.label: "1 (yes)"
- chain: "CUUAAGCAAUAUUACGCUGU"
  assigned.label: "0 (no)"
- chain: "ACAAAGCAAUAUUACGUGGU"
  assigned.label: "1 (yes)"
- chain: "CGUCAGCAAUAUUACGAAAG"
  assigned.label: "1 (yes)"
- chain: "ACACAGCAAUAUUACGAGAG"
  assigned.label: "0 (no)"
- chain: "AAAAAGCAAUAUUACGGUGG"
  assigned.label: "1 (yes)"
- chain: "CUGAAGCAAUAUUACGCAAA"
  assigned.label: "0 (no)"
- chain: "GUGAAGCAAUAUUACGGGAG"
  assigned.label: "1 (yes)"

---

Assay: self-splicing fitness, log relative to wild type (ln ratio); higher = more splicing; Tetrahymena group I intron in knt gene, E. coli kanamycin selection, DiMSum; sequences stand for … in CUCUCU…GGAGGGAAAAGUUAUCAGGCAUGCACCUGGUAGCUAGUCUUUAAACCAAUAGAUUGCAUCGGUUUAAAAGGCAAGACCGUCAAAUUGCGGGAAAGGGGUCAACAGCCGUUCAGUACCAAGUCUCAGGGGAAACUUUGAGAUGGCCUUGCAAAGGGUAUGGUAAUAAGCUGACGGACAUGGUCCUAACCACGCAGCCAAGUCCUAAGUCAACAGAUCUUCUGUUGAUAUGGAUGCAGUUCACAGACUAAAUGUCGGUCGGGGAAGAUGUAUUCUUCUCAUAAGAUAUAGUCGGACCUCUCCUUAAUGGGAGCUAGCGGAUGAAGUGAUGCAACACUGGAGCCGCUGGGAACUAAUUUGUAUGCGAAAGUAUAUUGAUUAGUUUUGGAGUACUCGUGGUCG
Details: 37 °C
endpoint: self-splicing fitness (ln)

- chain: "UGUUAGCAAUAUUACGUUUU"
  value.reported: -2.19
- chain: "CAUGAGCAAUAUUACGCGUU"
  value.reported: -2.35
- chain: "UGUCAGCAAUAUUACGAGCA"
  value.reported: -0.347
- chain: "CUUAAGCAAUAUUACGUACA"
  value.reported: -2.73
- chain: "ACAAAGCAAUAUUACGUGCU"
  value.reported: -0.486
- chain: "GCCCAGCAAUAUUACGUCGA"
  value.reported: -1.09
- chain: "GCUAAGCAAUAUUACGCUGA"
  value.reported: -1.02
- chain: "AUAGAGCAAUAUUACGGUGU"
  value.reported: -0.567
- chain: "AUGAAGCAAUAUUACGUAGU"
  value.reported: -0.665
- chain: "CAACAGCAAUAUUACGGUGC"
  value.reported: -2.8
- chain: "CUAUAGCAAUAUUACGCGCU"
  value.reported: -2.61
- chain: "CCUAAGCAAUAUUACGAUGU"
  value.reported: -2.03
- chain: "ACCAAGCAAUAUUACGCGGC"
  value.reported: -2.39
- chain: "CCCUAGCAAUAUUACGGUUU"
  value.reported: -2.87
- chain: "CGUCAGCAAUAUUACGACGA"
  value.reported: -1.2
- chain: "GUCUAGCAAUAUUACGCGUU"
  value.reported: -0.000183
- chain: "UCGAAGCAAUAUUACGUGCA"
  value.reported: -0.214
- chain: "UGUCAGCAAUAUUACGUCAG"
  value.reported: -0.464
- chain: "CAGCAGCAAUAUUACGCCCA"
  value.reported: -0.0298
- chain: "GUUCAGCAAUAUUACGACAG"
  value.reported: -1.76
- chain: "CUACAGCAAUAUUACGCCAA"
  value.reported: -3.04
- chain: "UUUAAGCAAUAUUACGGGUU"
  value.reported: -1.67
- chain: "UGCUAGCAAUAUUACGCGAU"
  value.reported: -1.03
- chain: "GCCCAGCAAUAUUACGUGGA"
  value.reported: 0.199
- chain: "GAUCAGCAAUAUUACGCUGU"
  value.reported: -2.38
- chain: "AUUAAGCAAUAUUACGGUCU"
  value.reported: 0.0171
- chain: "GCCGAGCAAUAUUACGGGUU"
  value.reported: -0.886
- chain: "AGAAAGCAAUAUUACGUGGU"
  value.reported: -2.41
- chain: "GAUUAGCAAUAUUACGGCUC"
  value.reported: 0.441
- chain: "AUGGAGCAAUAUUACGUGGA"
  value.reported: -1.78
- chain: "CCACAGCAAUAUUACGGUCC"
  value.reported: -2.32
- chain: "AAAAAGCAAUAUUACGUUGG"
  value.reported: -1.15
- chain: "AACAAGCAAUAUUACGUACC"
  value.reported: 0.125
- chain: "CGAUAGCAAUAUUACGUCAC"
  value.reported: -2.34

---

Assay: self-splicing fitness, log relative to wild type (ln ratio); higher = more splicing; Tetrahymena group I intron in knt gene, E. coli kanamycin selection, DiMSum; sequences stand for … in CUCUCU…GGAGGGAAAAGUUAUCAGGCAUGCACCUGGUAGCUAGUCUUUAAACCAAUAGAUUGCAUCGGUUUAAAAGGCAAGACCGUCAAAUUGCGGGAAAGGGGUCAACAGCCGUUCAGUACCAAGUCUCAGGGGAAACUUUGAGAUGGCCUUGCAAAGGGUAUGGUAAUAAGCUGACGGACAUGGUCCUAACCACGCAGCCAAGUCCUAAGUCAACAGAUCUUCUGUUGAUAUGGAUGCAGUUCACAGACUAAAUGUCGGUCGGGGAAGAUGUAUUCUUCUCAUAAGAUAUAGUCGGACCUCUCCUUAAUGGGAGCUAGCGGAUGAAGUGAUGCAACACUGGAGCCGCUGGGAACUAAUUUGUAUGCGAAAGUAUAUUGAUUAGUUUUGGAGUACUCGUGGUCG
Details: 30 °C
endpoint: self-splicing fitness (ln)

- chain: "CACGAGCAAUAUUACGGAUA"
  endpoint: "self-splicing fitness (ln)"
  value.reported: -2.98
- chain: "AGUUAGCAAUAUUACGCAGC"
  endpoint: "self-splicing fitness (ln)"
  value.reported: -2.29
- chain: "CAAGAGCAAUAUUACGGACA"
  endpoint: "self-splicing fitness (ln)"
  value.reported: -3.46
- chain: "CUCAAGCAAUAUUACGCCCA"
  endpoint: "self-splicing fitness (ln)"
  value.reported: -3.18
- chain: "ACGAAGCAAUAUUACGAUCA"
  endpoint: "self-splicing fitness (ln)"
  value.reported: -1.08
- chain: "CAGCAGCAAUAUUACGGUGU"
  endpoint: "self-splicing fitness (ln)"
  value.reported: -3.61
- chain: "AGUAAGCAAUAUUACGUCUU"
  endpoint: "self-splicing fitness (ln)"
  value.reported: -0.968
- chain: "UGUGAGCAAUAUUACGUGAG"
  endpoint: "self-splicing fitness (ln)"
  value.reported: -1.67
- chain: "GCUAAGCAAUAUUACGCACG"
  endpoint: "self-splicing fitness (ln)"
  value.reported: -1.84
- chain: "AAGAAGCAAUAUUACGGAGU"
  endpoint: "self-splicing fitness (ln)"
  value.reported: -3.02
- chain: "CUGCAGCAAUAUUACGAUAA"
  endpoint: "self-splicing fitness (ln)"
  value.reported: -3.39
- chain: "CAGGAGCAAUAUUACGACGU"
  endpoint: "self-splicing fitness (ln)"
  value.reported: -3.17
- chain: "AGAUAGCAAUAUUACGGCGG"
  endpoint: "self-splicing fitness (ln)"
  value.reported: -0.92
- chain: "UCGGAGCAAUAUUACGUUGC"
  endpoint: "self-splicing fitness (ln)"
  value.reported: -2.44
- chain: "UGAAAGCAAUAUUACGCCUU"
  endpoint: "self-splicing fitness (ln)"
  value.reported: -0.914
- chain: "GCCAAGCAAUAUUACGAAAG"
  endpoint: "self-splicing fitness (ln)"
  value.reported: -3.63
